# target.entity: HCV-NS5b (Hepatitis C virus genotype 1b, UniProt Q9WMX2)
# Construct: The cloned fragment was missing the C terminus 21 amino acid residues; (His)6 (C); made in house; host or cells: XL-1 cells (E. coli)
# assay.overview: HCV-NS5b Enzyme Assay
# Type: biochemical
# applied.conditions: 1 μM test compound; incorporation of [3H]-UTP, 37° C., 2 hours
measurement.type: inhibition at 1 µM (%)
Write the number in % without appending the unit.

Looking up Cc1nc(C)c(-c2ccc3cc(-c4c(C5CCCCC5)c5ccc(C#N)cc5n4CC(=O)N4CCOCC4)ccc3n2)s1 , I see its inhibition at 1 µM listed as 37.8

Looking up O=C(O)c1ccc2c(C3CCCCC3)c(-c3ccc4nc(-c5ccc(F)c(F)c5)ccc4c3)n(CC(=O)N3CCOCC3)c2c1 , I see its inhibition at 1 µM listed as 97.1

Looking up O=C(O)c1ccc2c(C3CCCCC3)c(-c3ccc(-c4ccc5cc(Br)ccc5n4)cc3)n(CC(=O)N3CCOCC3)c2c1 , I see its inhibition at 1 µM listed as 101

Looking up Cc1cc(-c2ccc3cc(-c4c(C5CCCCC5)c5ccc(C(=O)O)cc5n4CC(=O)N4CCOCC4)ccc3n2)c(C)s1 , I see its inhibition at 1 µM listed as 97.4

Looking up Nc1cccc(-c2ccc(-c3c(C4CCCCC4)c4ccc(C(=O)O)cc4n3CC(=O)N3CCOCC3)cc2)c1 , I see its inhibition at 1 µM listed as 95.8

Looking up CCOc1ncc(-c2ccc3cc(-c4c(C5CCCCC5)c5ccc(C(=O)O)cc5n4CC(=O)N4CCOCC4)ccc3n2)c(C)n1 , I see its inhibition at 1 µM listed as 93.6

Looking up Cc1nc(C)c(-c2ccc3cc(-c4c(C5CCCCC5)c5ccc(C(=O)O)cc5n4CC(=O)N4CCC(C)CC4)ccc3n2)s1 , I see its inhibition at 1 µM listed as 97.7

Looking up Cc1ccccc1-c1ccc2cc(-c3c(C4CCCCC4)c4ccc(C(=O)O)cc4n3CC(=O)N3CCOCC3)ccc2n1 , I see its inhibition at 1 µM listed as 97.5

Looking up COc1ccc(-c2ccc3cc(-c4c(C5CCCCC5)c5ccc(C(=O)O)cc5n4CC(=O)N4CCOCC4)ccc3n2)cc1OC , I see its inhibition at 1 µM listed as 97.5

Looking up Cc1noc(C)c1-c1ccc(-c2c(C3CCCCC3)c3ccc(C(=O)O)cc3n2CC(=O)N2CCOCC2)cc1 , I see its inhibition at 1 µM listed as 96.7

Looking up COc1ccc(-c2ccc3cc(-c4c(C5CCCCC5)c5ccc(C(=O)O)cc5n4CC(=O)N4CCOCC4)ccc3n2)cc1 , I see its inhibition at 1 µM listed as 96.9

Looking up Cc1ccccc1-c1ccc(-c2c(C3CCCCC3)c3ccc(C(=O)O)cc3n2CC(=O)N2CCOCC2)cc1 , I see its inhibition at 1 µM listed as 99.6

Looking up O=C(O)c1ccc2c(C3CCCCC3)c(-c3ccc4nc(-c5cncs5)ccc4c3)n(CC(=O)N3CCOCC3)c2c1 , I see its inhibition at 1 µM listed as 97

Looking up COc1cccc(-c2ccc(-c3c(C4CCCCC4)c4ccc(C(=O)O)cc4n3CC(=O)N3CCOCC3)cc2)c1 , I see its inhibition at 1 µM listed as 98.8

Reference source: patent US20060211698A1
